# Target or system: Growth factor receptor-bound protein-2 (GRB2) (Homo sapiens, UniProt P62993)
# Sequence (P62993 whole entry): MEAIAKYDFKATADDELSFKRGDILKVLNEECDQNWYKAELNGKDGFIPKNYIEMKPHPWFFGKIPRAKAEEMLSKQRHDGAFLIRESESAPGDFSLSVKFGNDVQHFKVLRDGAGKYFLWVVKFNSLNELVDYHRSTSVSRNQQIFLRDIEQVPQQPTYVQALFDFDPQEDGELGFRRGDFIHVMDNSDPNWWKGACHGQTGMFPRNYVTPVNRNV
# Measurement description: SPR (GRB2 immobilized on CM5 chip); authors call conditions sub-par for this compound
# Format: binding
Measured quantity: Kd (µM)
Supply the numeric figure in µM, leaving out any unit text.

Param request: Kd | system Growth factor receptor-bound protein-2 (GRB2) (Homo sapiens, UniProt P62993) | item COC(=O)c1c(C)oc2nc3ccccc3nc12
1000

Param request: Kd | system Growth factor receptor-bound protein-2 (GRB2) (Homo sapiens, UniProt P62993) | item CCOC(=O)c1c(C)oc2nc3ccccc3nc12
440

* * *

# Target or system: Growth factor receptor-bound protein-2 (GRB2) (Homo sapiens)
# Measurement description: SPR (GRB2 immobilized on CM5 chip); supported by competition ELISA with GST-GRB2 and cellulose nitrate filtration assay
# Type: binding
Measured quantity: Kd (µM)
Supply the numeric figure in µM, leaving out any unit text.

Give the reported value of Kd for this record: CC(=O)c1c(C)oc2nc3ccccc3nc12
119
